EXPERIMENTAL_SYSTEM: NEK2a (Homo sapiens, UniProt P51955)
Sequence (P51955 whole entry): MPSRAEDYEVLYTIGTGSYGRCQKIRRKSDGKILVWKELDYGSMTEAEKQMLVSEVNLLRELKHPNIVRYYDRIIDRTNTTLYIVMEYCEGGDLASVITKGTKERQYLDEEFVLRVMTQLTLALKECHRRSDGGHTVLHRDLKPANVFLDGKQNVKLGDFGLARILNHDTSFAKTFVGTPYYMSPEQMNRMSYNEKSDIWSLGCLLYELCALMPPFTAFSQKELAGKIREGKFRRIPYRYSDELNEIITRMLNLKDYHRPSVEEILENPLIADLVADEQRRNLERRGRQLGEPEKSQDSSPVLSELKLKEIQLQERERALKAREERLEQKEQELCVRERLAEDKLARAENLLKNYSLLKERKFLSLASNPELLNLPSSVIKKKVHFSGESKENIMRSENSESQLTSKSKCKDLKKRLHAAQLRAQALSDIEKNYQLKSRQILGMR
RUN_DESCRIPTION: Kinase panel: NEK2a
Format: biochemical, human/mammalian
CONDITION_NOTES: compound at 10 μM, read-out: % of activity respect of the control
RECORDED_METRIC: remaining activity at 10 µM (%)
Dear colleague, please return just the value in %, with no unit written.

Could you share which remaining activity at 10 µM value was measured for O=c1[nH]c2ncc(-c3ccc(F)cc3)nc2n1C1CCCCC1 [Compound 12] ? 93

Same question for C[C@H](c1ccccc1)n1c(=O)[nH]c2ncc(-c3ccccc3)nc21 [Compound 14] please. 96

Same question for O=c1[nH]c2ncc(-c3ccc(F)cc3)nc2n1CC1CC1 [Compound 10] please. 101

Next:
Could you share which remaining activity at 10 µM value was measured for CC(c1ccccc1)n1c(=O)[nH]c2ncc(-c3ccc(F)cc3)nc21 (stereo not shown) [Compound 1] ? 117

----------
EXPERIMENTAL_SYSTEM: PRK2 (Homo sapiens, UniProt Q16513)
Sequence (Q16513 whole entry): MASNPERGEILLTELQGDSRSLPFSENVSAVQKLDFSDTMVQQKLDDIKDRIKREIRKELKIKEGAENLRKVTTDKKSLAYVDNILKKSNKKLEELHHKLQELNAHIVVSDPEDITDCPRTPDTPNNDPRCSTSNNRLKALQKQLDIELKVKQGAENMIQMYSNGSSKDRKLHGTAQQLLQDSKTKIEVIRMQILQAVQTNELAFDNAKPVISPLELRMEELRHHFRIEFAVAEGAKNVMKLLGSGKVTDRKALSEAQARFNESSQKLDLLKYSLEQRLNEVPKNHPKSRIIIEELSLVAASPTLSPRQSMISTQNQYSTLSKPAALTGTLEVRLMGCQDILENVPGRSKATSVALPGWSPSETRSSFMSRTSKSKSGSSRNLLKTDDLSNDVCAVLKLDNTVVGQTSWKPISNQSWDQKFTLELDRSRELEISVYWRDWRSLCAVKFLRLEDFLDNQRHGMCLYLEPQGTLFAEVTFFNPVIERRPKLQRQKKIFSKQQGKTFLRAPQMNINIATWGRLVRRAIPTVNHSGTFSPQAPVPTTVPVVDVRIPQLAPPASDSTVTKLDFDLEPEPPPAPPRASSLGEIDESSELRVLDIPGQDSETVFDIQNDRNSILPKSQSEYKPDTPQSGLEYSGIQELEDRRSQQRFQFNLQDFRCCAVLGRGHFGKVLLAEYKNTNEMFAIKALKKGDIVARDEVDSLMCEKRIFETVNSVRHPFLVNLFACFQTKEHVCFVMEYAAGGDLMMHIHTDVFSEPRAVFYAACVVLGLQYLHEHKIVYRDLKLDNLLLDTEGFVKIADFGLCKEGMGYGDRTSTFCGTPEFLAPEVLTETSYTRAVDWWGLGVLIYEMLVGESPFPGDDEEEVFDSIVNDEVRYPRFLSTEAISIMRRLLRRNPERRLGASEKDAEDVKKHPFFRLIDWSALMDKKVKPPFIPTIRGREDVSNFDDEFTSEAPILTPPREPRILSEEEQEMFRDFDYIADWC
RUN_DESCRIPTION: Kinase panel: PRK2
Type: biochemical, human/mammalian
CONDITION_NOTES: compound at 10 μM, read-out: % of activity respect of the control
RECORDED_METRIC: remaining activity at 10 µM (%)
Dear colleague, please return just the value in %, with no unit written.

Could you share which remaining activity at 10 µM value was measured for C[C@H](c1ccccc1)n1c(=O)[nH]c2ncc(-c3ccccc3)nc21 ? 97

Same question for CC(c1ccccc1)n1c(=O)[nH]c2ncc(-c3ccc(F)cc3)nc21 (stereo not shown) please. 111

Same question for O=c1[nH]c2ncc(-c3ccc(F)cc3)nc2n1C1CCCCC1 please. 112

Same question for O=c1[nH]c2ncc(-c3ccc(F)cc3)nc2n1CC1CC1 please. 99

----------
RUN_DESCRIPTION: In vivo pharmacokinetics in mice
Parameters: species or system female NMRI mice
CONDITION_NOTES: mouse, whole blood, ip, 20 mg kg^−1, female NMRI mice, blood; read-out: AUC(0–8) (converted)
Description: In vivo pharmacokinetics in mice: Compounds 1 and 28 were dosed orally by gavage as a solution at 5 mg free base per kg or 20 mg free base per kg, respectively (dose volume: 5 or 10 mL kg^−1, dose vehicle: 5 % DMSO, 40 % PEG400, 55 % distilled H2O) to female NMRI mice (n=3). […] After suitable sample preparation, the concentration of each compound in blood was determined by UPLC–MS/MS using a Quattro Premier XE (Waters, USA). […]
# reported AUC(0-t); entries follow
Dear colleague, please return just the value in ng·h/mL, with no unit written.

Could you share which AUC(0-t) value was measured for O=c1[nH]c2ncc(-c3ccccc3)nc2n1C1CCOCC1 ? 367

--- query ---
Could you share which AUC(0-t) value was measured for O=c1[nH]c2ncc(-c3ccccc3CO)nc2n1C1CCCCC1 ? 3830

----------
EXPERIMENTAL_SYSTEM: MNK1 (Homo sapiens)
Sequence (Q9BUB5 whole entry): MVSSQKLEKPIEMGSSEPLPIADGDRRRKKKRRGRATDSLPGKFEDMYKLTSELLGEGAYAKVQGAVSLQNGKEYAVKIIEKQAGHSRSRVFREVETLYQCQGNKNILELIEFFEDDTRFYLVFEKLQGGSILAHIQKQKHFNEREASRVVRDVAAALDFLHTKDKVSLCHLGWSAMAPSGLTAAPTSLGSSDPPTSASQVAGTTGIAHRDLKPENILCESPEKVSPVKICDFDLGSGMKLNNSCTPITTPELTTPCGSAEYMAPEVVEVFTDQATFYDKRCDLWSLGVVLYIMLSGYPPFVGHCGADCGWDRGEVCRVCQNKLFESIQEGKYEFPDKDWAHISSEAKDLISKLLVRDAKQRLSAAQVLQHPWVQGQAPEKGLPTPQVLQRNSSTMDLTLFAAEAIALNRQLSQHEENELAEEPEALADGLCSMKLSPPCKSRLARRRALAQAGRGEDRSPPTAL
RUN_DESCRIPTION: Kinase panel: MNK1
Format: biochemical, human/mammalian
CONDITION_NOTES: compound at 10 μM, read-out: % of activity respect of the control
# reported remaining activity at 10 µM; entries follow
Dear colleague, please return just the value in %, with no unit written.

// solved cases for remaining activity at 10 µM follow
Could you share which remaining activity at 10 µM value was measured for O=c1[nH]c2ncc(-c3ccc(F)cc3)nc2n1C1CCCCC1 [Compound 12] ? 93

Same question for CC(c1ccccc1)n1c(=O)[nH]c2ncc(-c3ccc(F)cc3)nc21 (stereo not shown) [Compound 1] please. 83

Same question for C[C@H](c1ccccc1)n1c(=O)[nH]c2ncc(-c3ccccc3)nc21 [Compound 14] please. 76

--- query ---
Could you share which remaining activity at 10 µM value was measured for O=c1[nH]c2ncc(-c3ccc(F)cc3)nc2n1CC1CC1 [Compound 10] ? 93

----------
EXPERIMENTAL_SYSTEM: TBK1 (DU12569) (Homo sapiens, UniProt Q9UHD2)
Sequence (Q9UHD2 whole entry): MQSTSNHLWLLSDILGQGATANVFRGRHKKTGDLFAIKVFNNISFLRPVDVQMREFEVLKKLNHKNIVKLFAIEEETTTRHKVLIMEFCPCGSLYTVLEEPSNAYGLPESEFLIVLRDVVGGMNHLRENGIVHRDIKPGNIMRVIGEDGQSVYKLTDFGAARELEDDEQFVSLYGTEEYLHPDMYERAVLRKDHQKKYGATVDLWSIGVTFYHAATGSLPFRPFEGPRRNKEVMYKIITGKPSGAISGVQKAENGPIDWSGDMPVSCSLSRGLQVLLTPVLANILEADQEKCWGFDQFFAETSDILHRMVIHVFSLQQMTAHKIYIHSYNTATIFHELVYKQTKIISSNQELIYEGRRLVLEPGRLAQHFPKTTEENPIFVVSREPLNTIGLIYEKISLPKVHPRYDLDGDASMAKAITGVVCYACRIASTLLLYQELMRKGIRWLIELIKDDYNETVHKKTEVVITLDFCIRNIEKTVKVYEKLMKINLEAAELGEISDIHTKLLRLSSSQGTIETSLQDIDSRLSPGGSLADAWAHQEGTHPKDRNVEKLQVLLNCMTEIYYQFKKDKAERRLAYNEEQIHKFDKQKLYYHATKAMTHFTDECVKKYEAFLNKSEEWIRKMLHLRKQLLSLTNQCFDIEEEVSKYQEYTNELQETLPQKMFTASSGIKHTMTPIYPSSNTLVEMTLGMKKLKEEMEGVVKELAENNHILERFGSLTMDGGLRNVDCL
RUN_DESCRIPTION: Kinase panel: TBK1 (DU12569)
Type: biochemical, human/mammalian
CONDITION_NOTES: compound at 10 μM, read-out: % of activity respect of the control
RECORDED_METRIC: remaining activity at 10 µM (%)
Dear colleague, please return just the value in %, with no unit written.

// solved cases for remaining activity at 10 µM follow
Could you share which remaining activity at 10 µM value was measured for O=c1[nH]c2ncc(-c3ccc(F)cc3)nc2n1CC1CC1 ? 86

Same question for CC(c1ccccc1)n1c(=O)[nH]c2ncc(-c3ccc(F)cc3)nc21 (stereo not shown) please. 95

Same question for C[C@H](c1ccccc1)n1c(=O)[nH]c2ncc(-c3ccccc3)nc21 please. 78

Next:
Could you share which remaining activity at 10 µM value was measured for O=c1[nH]c2ncc(-c3ccc(F)cc3)nc2n1C1CCCCC1 ? 90

----------
EXPERIMENTAL_SYSTEM: S6K1 (Homo sapiens, UniProt P23443)
Sequence (P23443 whole entry): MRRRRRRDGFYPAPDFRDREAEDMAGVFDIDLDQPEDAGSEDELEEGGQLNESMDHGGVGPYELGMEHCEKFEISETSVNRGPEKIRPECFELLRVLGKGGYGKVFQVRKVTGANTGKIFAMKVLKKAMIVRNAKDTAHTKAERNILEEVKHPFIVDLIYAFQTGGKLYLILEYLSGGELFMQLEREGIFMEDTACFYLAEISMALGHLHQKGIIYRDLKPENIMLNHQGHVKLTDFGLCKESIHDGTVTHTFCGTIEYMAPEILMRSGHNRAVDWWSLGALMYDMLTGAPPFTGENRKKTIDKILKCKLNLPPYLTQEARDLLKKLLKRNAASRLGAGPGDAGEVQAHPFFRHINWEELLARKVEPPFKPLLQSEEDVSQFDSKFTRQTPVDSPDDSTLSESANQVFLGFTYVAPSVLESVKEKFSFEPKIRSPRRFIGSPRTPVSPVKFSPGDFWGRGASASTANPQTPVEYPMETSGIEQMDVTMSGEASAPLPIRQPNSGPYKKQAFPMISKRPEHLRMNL
RUN_DESCRIPTION: Kinase panel: S6K1
Format: biochemical, human/mammalian
CONDITION_NOTES: compound at 10 μM, read-out: % of activity respect of the control
RECORDED_METRIC: remaining activity at 10 µM

// solved cases for remaining activity at 10 µM follow
Could you share which remaining activity at 10 µM value was measured for O=c1[nH]c2ncc(-c3ccc(F)cc3)nc2n1CC1CC1 ? 92%

Same question for CC(c1ccccc1)n1c(=O)[nH]c2ncc(-c3ccc(F)cc3)nc21 (stereo not shown) please. 81%

Same question for C[C@H](c1ccccc1)n1c(=O)[nH]c2ncc(-c3ccccc3)nc21 please. 65%

--- query ---
Could you share which remaining activity at 10 µM value was measured for O=c1[nH]c2ncc(-c3ccc(F)cc3)nc2n1C1CCCCC1 ? 97%

----------
EXPERIMENTAL_SYSTEM: UniProt O00418
RUN_DESCRIPTION: Kinase panel: EF2K
Assay type: biochemical, human/mammalian
CONDITION_NOTES: compound at 10 μM, read-out: % of activity respect of the control
RECORDED_METRIC: remaining activity at 10 µM (%)
Dear colleague, please return just the value in %, with no unit written.

Could you share which remaining activity at 10 µM value was measured for O=c1[nH]c2ncc(-c3ccc(F)cc3)nc2n1C1CCCCC1 ? 98

Same question for CC(c1ccccc1)n1c(=O)[nH]c2ncc(-c3ccc(F)cc3)nc21 (stereo not shown) please. 93

Same question for O=c1[nH]c2ncc(-c3ccc(F)cc3)nc2n1CC1CC1 please. 92

--- query ---
Could you share which remaining activity at 10 µM value was measured for C[C@H](c1ccccc1)n1c(=O)[nH]c2ncc(-c3ccccc3)nc21 ? 79

----------
EXPERIMENTAL_SYSTEM: PIM1 (Homo sapiens)
Sequence (P11309 whole entry): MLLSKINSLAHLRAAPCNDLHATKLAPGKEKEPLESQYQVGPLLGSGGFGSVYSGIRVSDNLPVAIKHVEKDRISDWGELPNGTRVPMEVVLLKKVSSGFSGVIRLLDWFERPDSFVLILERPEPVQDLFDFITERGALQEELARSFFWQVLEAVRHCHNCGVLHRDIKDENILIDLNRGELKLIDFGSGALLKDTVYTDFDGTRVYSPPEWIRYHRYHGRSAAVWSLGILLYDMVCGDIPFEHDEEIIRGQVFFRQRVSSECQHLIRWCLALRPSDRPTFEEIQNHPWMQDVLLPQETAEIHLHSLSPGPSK
RUN_DESCRIPTION: Kinase panel: PIM1
Assay type: biochemical, human/mammalian
CONDITION_NOTES: compound at 10 μM, read-out: % of activity respect of the control
Experimental: The DDU kinase-focused compound set contains lead-like scaffolds that are designed to target protein kinases; they have kinase hinge binding motifs. Four of the 1H-imidazopyrazinones were screened against a human/mammalian kinase panel at the University of Dundee (http://www.kinase-screen.mrc.ac.uk) at a concentration of 10 μM. At the time of testing the panel contained 79 mammalian kinases selected to provide a broad coverage of the mammalian kinome (∼500 kinases in the human genome).[3] […]
# reported remaining activity at 10 µM; entries follow
Dear colleague, please return just the value in %, with no unit written.

// solved cases for remaining activity at 10 µM follow
Give recorded remaining activity at 10 µM with PIM1 (Homo sapiens) for the following compound: O=c1[nH]c2ncc(-c3ccc(F)cc3)nc2n1C1CCCCC1 82

Same question for C[C@H](c1ccccc1)n1c(=O)[nH]c2ncc(-c3ccccc3)nc21 please. 72

Same question for O=c1[nH]c2ncc(-c3ccc(F)cc3)nc2n1CC1CC1 please. 79

--- query ---
Give recorded remaining activity at 10 µM with PIM1 (Homo sapiens) for the following compound: CC(c1ccccc1)n1c(=O)[nH]c2ncc(-c3ccc(F)cc3)nc21 (stereo not shown) 80

----------
RUN_DESCRIPTION: In vivo pharmacokinetics in mice
Parameters: species or system female NMRI mice
CONDITION_NOTES: mouse, whole blood, ip, 20 mg kg^−1, female NMRI mice, blood
Protocol: In vivo pharmacokinetics in mice: Compounds 1 and 28 were dosed orally by gavage as a solution at 5 mg free base per kg or 20 mg free base per kg, respectively (dose volume: 5 or 10 mL kg^−1, dose vehicle: 5 % DMSO, 40 % PEG400, 55 % distilled H2O) to female NMRI mice (n=3). […] After suitable sample preparation, the concentration of each compound in blood was determined by UPLC–MS/MS using a Quattro Premier XE (Waters, USA). […]
# reported half-life; entries follow
Dear colleague, please return just the value in h, with no unit written.

Could you share which half-life value was measured for O=c1[nH]c2ncc(-c3ccccc3CO)nc2n1C1CCCCC1 ? 1.2

--- query ---
Could you share which half-life value was measured for O=c1[nH]c2ncc(-c3ccccc3)nc2n1C1CCOCC1 ? 2.2

// data source = paper PMC4648050
